# Test system: 786-0
# PROTOCOL_DESCRIPTION: NCI tumour cell line growth inhibition, 48 h
The source made the active and inactive calls. Cut-off read from the data, not from the text of the source: active = GI50 up to about 1.1 µM and inactive = higher.
Write down the outcome that applies. Available outcomes: yes = active, no = inactive

{"columns": ["MOLECULE", "TARGET_SYSTEM", "GROUP"],
 "data": [
  ["Cc1cc(S(=O)(=O)n2ccnc2Oc2cccc(Cl)c2)c(SSc2cc(Cl)c(C)cc2S(=O)(=O)n2ccnc2Oc2cccc(Cl)c2)cc1Cl", "786-0", "no"],
  ["CCOC(=O)c1c(Nc2ccccc2)sc2cccnc12", "786-0", "no"],
  ["OCC(O)C(O)C(O)C(/C=N\\Nc1ncnc2ccc(Br)cc12)=N/Nc1ncnc2ccc(Br)cc12 (centres undefined)", "786-0", "no"],
  ["O=C1CNc2cc(N3CCOCC3)ccc2N1", "786-0", "no"],
  ["Fc1cccc(C2SCc3nc4ccccc4n32)c1F (centres undefined)", "786-0", "no"]
]}

QUERY: For COC(=O)CNC(=O)Nc1cc(N2C(=O)ON3C2C(C)(C)N(O)C3(C)C)ccc1C (centres undefined) , which call appears in the assay record?
RESULT: no

QUERY: What classification did C/C(=N\N=C(/S)N(C)C)c1cccnn1 end up with in this test?
RESULT: yes

QUERY: Recorded call for O=C(C[n+]1ccccc1)N/N=C(\C(=O)NC1=C(Cl)C(=O)c2ccccc2C1=O)c1c(O)c2ccc(O)cc2oc1=O ?
RESULT: no

QUERY: What is the recorded call for this molecule in the test? CC(=O)O[C@H]1CC[C@@]2(C)C(=CC[C@@H]3C2CC[C@]2(C)Nc4c(cnn4-c4ccccc4)CC32)C1 (some centres undefined)
RESULT: no
